Where do these numbers come from? They come from patent US9227967B2.

# target.or.test.system: human SSAO (Homo sapiens, UniProt Q16853)
# Sequence (Q16853 29-763 limits assumed): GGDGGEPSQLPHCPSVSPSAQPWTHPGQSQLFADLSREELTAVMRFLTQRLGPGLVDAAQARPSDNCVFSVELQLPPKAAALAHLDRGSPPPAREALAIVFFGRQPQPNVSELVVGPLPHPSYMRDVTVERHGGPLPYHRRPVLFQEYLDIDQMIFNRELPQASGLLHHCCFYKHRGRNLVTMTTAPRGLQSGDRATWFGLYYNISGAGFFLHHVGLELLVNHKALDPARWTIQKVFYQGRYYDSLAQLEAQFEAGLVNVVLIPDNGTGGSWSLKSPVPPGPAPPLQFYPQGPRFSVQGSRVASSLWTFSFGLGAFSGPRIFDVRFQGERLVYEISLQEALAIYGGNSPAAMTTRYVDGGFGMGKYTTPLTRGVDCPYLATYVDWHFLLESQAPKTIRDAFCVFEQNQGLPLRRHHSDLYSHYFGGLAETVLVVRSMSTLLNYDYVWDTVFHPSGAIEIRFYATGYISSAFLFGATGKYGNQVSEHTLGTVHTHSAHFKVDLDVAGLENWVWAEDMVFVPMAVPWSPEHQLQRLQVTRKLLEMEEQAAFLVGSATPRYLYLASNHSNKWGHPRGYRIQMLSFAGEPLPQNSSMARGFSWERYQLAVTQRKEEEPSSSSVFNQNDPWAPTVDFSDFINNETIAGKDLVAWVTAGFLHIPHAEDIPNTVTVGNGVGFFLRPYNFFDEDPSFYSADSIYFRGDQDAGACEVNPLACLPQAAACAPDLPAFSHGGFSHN
# assay.notes: SSAO enzyme inhibition assay (benzylamine substrate; HRP-coupled hydrogen peroxide detection or 14C-benzaldehyde detection)
# experimental.context: purified recombinantly expressed human SSAO, benzylamine as substrate, r.t.; read-out: SSAO inhibitory activity IC50
pIC50: −log10 of the molar value.
quantity.measured: pIC50

Consider the worked cases shown below.
compound	pIC50
Cc1ccc(-n2nc(C3CCC(=O)NC3)c3ccncc32)cc1 (stereo not drawn)	6.30 to 7.00
CCOC(=O)N1CCC(c2nn(-c3ccc(Cl)cc3)c3cnccc23)CC1	6.30 to 7.00
Clc1ccc(-c2cn(C3CCNCC3)c3ccncc23)cc1	6.30 to 7.00
Clc1ccc(-n2nc(N3CCNCC3)c3ccncc32)cc1	5.60 to 6.30
NCCC(=O)N1CCN(c2nn(-c3ccc(Cl)cc3)c3cnccc23)CC1	6.30 to 7.00

Query: # get_value(readout= pIC50, system= human SSAO (Homo sapiens, UniProt Q16853)) for CC(C)(C)OC(=O)N1CCN(Cc2cn(-c3ccc(Cl)cc3)c3cnccc23)CC1
Reply: 5.60 to 6.30

Query: # get_value(readout= pIC50, system= human SSAO (Homo sapiens, UniProt Q16853)) for Clc1ccc(-c2cn(C3CCOCC3)c3ccncc23)cc1
Reply: 6.30 to 7.00

Query: # get_value(readout= pIC50, system= human SSAO (Homo sapiens, UniProt Q16853)) for O=C(CO)N1CCC(n2cc(-c3ccc(Cl)c(Cl)c3)c3cnccc32)CC1
Reply: 5.60 to 6.30

Query: # get_value(readout= pIC50, system= human SSAO (Homo sapiens, UniProt Q16853)) for Cc1ccc(-n2nc(N3CCOCC3C(=O)N3CCOCC3)c3ccncc32)cc1 (stereo not drawn)
Reply: 5.60 to 6.30

---

# target.or.test.system: human SSAO (Homo sapiens, UniProt Q16853)
# assay.notes: SSAO enzyme inhibition assay (benzylamine substrate; HRP-coupled hydrogen peroxide detection or 14C-benzaldehyde detection)
# experimental.context: purified recombinantly expressed human SSAO, benzylamine as substrate, r.t.; read-out: SSAO inhibitory activity IC50
# Method: All primary assays were performed at r.t. with purified recombinantly expressed human SSAO. Enzyme was prepared essentially as described in Öhman et al. (Protein Expression and Purification 46 (2006) 321-331). […] SSAO activity was assayed using 14C-labeled benzylamine and analysed by measuring radioactive benzaldehyde. […] Phase separation occurred instantly and activity was read in a Topcount scintillation counter (Perkin-Elmer). […] Data was analysed as above.
pIC50: −log10 of the molar value. Where a name gives a salt, the structure may show the parent alone.
quantity.measured: pIC50

molecule	pIC50
COC1CCN(c2nn(-c3ccc(C)cc3)c3cnccc23)C1 (stereo not drawn)	> 7.00

Query: # get_value(readout= pIC50, system= human SSAO (Homo sapiens, UniProt Q16853)) for NCCC(=O)N1CCC(c2nn(-c3ccc(Cl)cc3)c3cnccc23)CC1 [Compound 93, dihydrochloride]
Reply: 6.30 to 7.00

---

Listed next: entries and their corresponding IC50.
# target.or.test.system: human SSAO (Homo sapiens, UniProt Q16853)
# assay.notes: SSAO enzyme inhibition assay (benzylamine substrate; HRP-coupled hydrogen peroxide detection or 14C-benzaldehyde detection)
# experimental.context: purified recombinantly expressed human SSAO, benzylamine as substrate, r.t.; read-out: SSAO inhibitory activity IC50

Consider the worked cases shown below.
compound	data.value
Cc1ccc(-n2nc(N3CCC(O)CC3)c3ccncc32)cc1 [Compound 74]	< 100 nM
NCCOC(=O)N1CCC(c2cn(-c3ccc(Cl)cc3)c3cnccc23)CC1 [Compound 106]	< 100 nM
OCCN1CCC(c2cn(-c3ccc(Cl)cc3)c3cnccc23)CC1 [Compound 18]	100 to 500 nM
OCc1cn(-c2ccc(Cl)cc2)c2cnccc12 [Compound 23]	500 to 2500 nM

Now consider the entry below.
Query: // IC50 lookup, key: Cc1ccc(-n2nc(N3CC4CCC(C3)O4)c3ccncc32)cc1 [Compound 63]
Reply: < 100 nM

---

Listed next: entries and their corresponding IC50.
# target.or.test.system: human SSAO (Homo sapiens)
# Construct: made in house
# assay.notes: SSAO enzyme inhibition assay (benzylamine substrate; HRP-coupled hydrogen peroxide detection or 14C-benzaldehyde detection)
# Assay type: biochemical
# experimental.context: purified recombinantly expressed human SSAO, benzylamine as substrate, r.t.; read-out: SSAO inhibitory activity IC50
Counter-ions that a name gives are not always drawn.

Consider the worked cases shown below.
compound	IC50
CCCCN1CCC(c2nn(-c3ccc(Cl)cc3)c3cnccc23)CC1	500 to 2500 nM
N#Cc1ccc(-n2nc(C3CCOCC3)c3ccncc32)cc1	500 to 2500 nM
NC1CCN(c2nn(-c3ccc(Cl)cc3)c3cnccc23)CC1	100 to 500 nM
Clc1ccc(-n2nc(N3CCN(Cc4cc[nH]n4)CC3)c3ccncc32)cc1	100 to 500 nM
Cn1cc(CN2CCC(c3cn(-c4ccc(Cl)cc4)c4cnccc34)CC2)cn1	100 to 500 nM

Query: # get_value(readout= IC50, system= human SSAO (Homo sapiens)) for NC1CCC(c2cn(-c3ccc(Cl)cc3)c3cnccc23)CC1 (mixture of isomers) [Compound 12, hydrochloride]
Reply: < 100 nM

Query: # get_value(readout= IC50, system= human SSAO (Homo sapiens)) for Clc1ccc(-n2nc(N3CCOCC3)c3ccncc32)cc1
Reply: < 100 nM

Query: # get_value(readout= IC50, system= human SSAO (Homo sapiens)) for OC1CCN(c2nn(-c3ccc(Cl)cc3)c3cnccc23)C1 (stereo not drawn)
Reply: < 100 nM

Query: # get_value(readout= IC50, system= human SSAO (Homo sapiens)) for Cc1ccc(-n2cc(C3CCOCC3)c3ccncc32)cc1
Reply: < 100 nM

Query: # get_value(readout= IC50, system= human SSAO (Homo sapiens)) for Clc1ccc(-n2cc(C3CCNCC3)c3ccncc32)cc1 [Compound 10, trifluoroacetate]
Reply: 100 to 500 nM

---

# target.or.test.system: human SSAO (Homo sapiens, UniProt Q16853)
# assay.notes: SSAO enzyme inhibition assay (benzylamine substrate; HRP-coupled hydrogen peroxide detection or 14C-benzaldehyde detection)
# experimental.context: purified recombinantly expressed human SSAO, benzylamine as substrate, r.t.; read-out: SSAO inhibitory activity IC50
pIC50: −log10 of the molar value. Structures can show the parent of a compound that is named as a salt.
quantity.measured: pIC50

compound	pIC50
O=C(CO)N1CCC(c2cn(-c3ccc(Cl)cc3)c3cnccc23)CC1 [Compound 15]	> 7.00
CC1COCCN1c1nn(-c2ccc(Cl)cc2)c2cnccc12 (stereo not drawn) [Compound 60]	> 7.00
c1ccc(-n2nc(C3CCOCC3)c3ccncc32)cc1 [Compound 40]	5.60 to 6.30
Fc1cncc2c1c(C1CCOCC1)nn2-c1ccc(Cl)cc1 [Compound 88]	5.60 to 6.30
Cc1ccc(-n2c(C)c(C3=CCOCC3)c3ccncc32)cc1 [Compound 107]	> 7.00
CN(C)C(=O)N1CCC(c2nn(-c3ccc(Cl)cc3)c3cnccc23)CC1 [Compound 91]	6.30 to 7.00
N#CCCN1CCC(c2cn(-c3ccc(Cl)cc3)c3cnccc23)CC1 [Compound 21, hydrochloride]	6.30 to 7.00
FC1(F)CCN(c2nn(-c3ccc(Cl)cc3)c3cnccc23)CC1 [Compound 52]	6.30 to 7.00

Now consider the entry below.
Query: // pIC50 lookup, key: Cc1ccc(-n2nc(N3CCNC(=O)C3)c3ccncc32)cc1 [Compound 68]
Reply: > 7.00

---

# target.or.test.system: human SSAO (Homo sapiens, UniProt Q16853)
# assay.notes: SSAO enzyme inhibition assay (benzylamine substrate; HRP-coupled hydrogen peroxide detection or 14C-benzaldehyde detection)
# experimental.context: purified recombinantly expressed human SSAO, benzylamine as substrate, r.t.; read-out: SSAO inhibitory activity IC50
Listed next: entries and their corresponding IC50.

Consider the worked cases shown below.
molecule	data.value
Clc1ccc(-n2nc(C3CCOCC3)c3ccncc32)cc1	100 to 500 nM
CC(C)(C)OC(=O)N1CCC(n2cc(-c3ccc(Cl)cc3)c3cnccc32)CC1	500 to 2500 nM
Clc1ccc(-n2cc(N3CCOCC3)c3ccncc32)cc1	< 100 nM
NCCCC(=O)N1CCC(c2cn(-c3ccc(Cl)cc3)c3cnccc23)CC1	< 100 nM
Clc1ccc(-n2nc(C3CCNCC3)c3ccncc32)cc1	100 to 500 nM

Query: // IC50 lookup, key: Cc1ccc(-n2nc(N3CCC(C(N)=O)CC3)c3ccncc32)cc1
Reply: < 100 nM

Query: // IC50 lookup, key: Cc1ccc(-n2nc(N3CCOC(CC(C)C)C3)c3ccncc32)cc1 (stereo not drawn)
Reply: 100 to 500 nM

Query: // IC50 lookup, key: Cc1ccc(-n2nc(N3CCOC(C)(C)C3)c3ccncc32)cc1
Reply: < 100 nM

Query: // IC50 lookup, key: Cc1ccc(-n2nc(N3CCOCC3C(N)=O)c3ccncc32)cc1 (stereo not drawn)
Reply: 500 to 2500 nM
